Target: UniProtKB P33535
MEASURE: IC50 (nM)

1) CCc1ccc(OCc2ccccc2C(=O)Nc2ccc3nc(C)cc(N)c3c2)cc1.Cl [Example 1, hydrochloride] : 1520
2) Cc1cc(N)c2cc(NC(=O)c3ccccc3COc3cccc([N+](=O)[O-])c3)ccc2n1.Cl [Example 19, hydrochloride] : 1030
3) Cc1cc(C)cc(OCc2ccccc2C(=O)Nc2ccc3nc(C)cc(N)c3c2)c1.Cl [Example 5, hydrochloride] : 1340
4) Cc1ccc(OCc2ccccc2C(=O)Nc2ccc3nc(C)cc(N)c3c2)cc1.Cl [Example 17, hydrochloride] : 1020

----------
Counter-ions that a name gives are not always drawn.
MEASURE: melting point (°C)

1) Cc1cc(N)c2cc(NC(=O)c3ccccc3COc3ccc4occc4c3)ccc2n1.Cl : 269
2) Cc1cc(N)c2cc(NC(=O)[C@@H]3CCCN3CCOc3ccc(Cl)cc3)ccc2n1 : 216
3) Cc1cc(N)c2cc(NC(=O)c3ccccc3COc3cccc(C(F)(F)F)c3)ccc2n1.Cl : 253
4) Cc1cc(N)c2cc(NC(=O)c3ccccc3CCCCCOc3ccccc3)ccc2n1.Cl : 253
5) Cc1cc(N)c2cc(NC(=O)c3ccccc3COc3ccc(N)cc3)ccc2n1 (as salt: hydrochloride) [Example 23, dihydrochloride] : 237
6) Cc1cc(N)c2cc(NC(=O)c3ccccc3CCCCCCc3ccccc3)ccc2n1.Cl : 213

I: Cc1cc(N)c2cc(NC(=O)c3ccccc3COc3ccc(-c4ccccc4)cc3)ccc2n1.Cl
II: Cc1cc(N)c2cc(NC(=O)c3ccccc3COc3ccc4c(c3)CCCC4)ccc2n1.Cl
Field: entry with larger melting point (options I / II ). Select an item and report its label. I
(I: 268 °C, II: 176 °C)

----------
Lab note: IC50 readings collected with UniProt P33535 for the following compounds.
MEASURE: IC50 (nM)

1. Cc1cc(N)c2cc(NC(=O)c3ccccc3COc3ccc(Cl)cc3Cl)ccc2n1.Cl [Example 2, hydrochloride] : 1330
2. Cc1cc(N)c2cc(NC(=O)c3ccccc3COc3ccccc3Cl)ccc2n1.Cl [Example 27, hydrochloride] : 1060
3. Cc1cc(N)c2cc(NC(=O)c3ccccc3COc3ccc([N+](=O)[O-])cc3)ccc2n1 : 960

I: Cc1cc(N)c2cc(NC(=O)c3ccccc3COc3ccccc3)ccc2n1.Cl [Example 3, hydrochloride]
II: Cc1cc(N)c2cc(NC(=O)c3ccccc3COc3ccc(Cl)c(C)c3)ccc2n1.Cl [Example 42, hydrochloride]
Returns the identifier with the smallest measured IC50 among I and II . Select an item and report its label. I
(I: 1110 nM, II: 1990 nM)

----------
pKi: −log10 of the molar value.
Lab note: pKi readings collected with μ receptor (Rattus norvegicus, UniProt P33535) for the following molecules.
Sequence (P33535 whole entry): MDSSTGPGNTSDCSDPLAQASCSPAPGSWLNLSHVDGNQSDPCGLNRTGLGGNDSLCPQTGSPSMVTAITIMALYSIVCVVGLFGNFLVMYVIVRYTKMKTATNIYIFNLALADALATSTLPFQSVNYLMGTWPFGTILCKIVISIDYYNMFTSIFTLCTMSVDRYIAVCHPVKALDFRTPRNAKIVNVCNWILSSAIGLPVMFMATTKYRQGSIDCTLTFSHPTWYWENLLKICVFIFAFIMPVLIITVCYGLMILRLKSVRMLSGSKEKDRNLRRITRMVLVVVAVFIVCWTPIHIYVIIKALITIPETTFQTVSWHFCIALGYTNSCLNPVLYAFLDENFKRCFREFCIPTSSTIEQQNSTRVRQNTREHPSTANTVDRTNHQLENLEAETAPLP
MEASURE: pKi

Example entries begin here.
1. COc1cc(OC)cc(OCc2ccccc2C(=O)Nc2ccc3nc(C)cc(N)c3c2)c1.Cl [Example 10, hydrochloride] : 6.49
2. CCc1ccc(OCc2ccccc2C(=O)Nc2ccc3nc(C)cc(N)c3c2)c(Cl)c1.Cl [Example 89, hydrochloride] : 6.26
3. COc1cccc(OCc2ccccc2C(=O)Nc2ccc3nc(C)cc(N)c3c2)c1OC.Cl [Example 8, hydrochloride] : 6.74
4. Cc1cc(C)cc(OCc2ccccc2C(=O)Nc2ccc3nc(C)cc(N)c3c2)c1.Cl [Example 5, hydrochloride] : 6.30
5. COc1ccc(OCc2ccccc2C(=O)Nc2ccc3nc(C)cc(N)c3c2)cc1.Cl [Example 4, hydrochloride] : 6.34

1: CCCc1ccc(OCc2ccccc2C(=O)Nc2ccc3nc(C)cc(N)c3c2)cc1.Cl [Example 34, hydrochloride]
2: Cc1cc(N)c2cc(NC(=O)c3ccccc3COc3ccc(C(C)(C)C)cc3)ccc2n1.Cl [Example 29, hydrochloride]
3: Cc1cc(N)c2cc(NC(=O)c3ccccc3COc3ccc(C#N)cc3)ccc2n1.Cl [Example 16, hydrochloride]
Would you mind ranking these molecules by ascending pKi? Record the ranking as a list of labels in the requested order. 1, 2, 3
(1: 6.05, 2: 6.38, 3: 6.59)

A: Cc1cc(N)c2cc(NC(=O)c3ccccc3COc3ccc(Cl)c(Cl)c3)ccc2n1.Cl [Example 26, hydrochloride]
B: Cc1ccc(OCc2ccccc2C(=O)Nc2ccc3nc(C)cc(N)c3c2)c(Cl)c1.Cl [Example 43, hydrochloride]
C: CC(=O)c1ccc(OCc2ccccc2C(=O)Nc2ccc3nc(C)cc(N)c3c2)cc1.Cl [Example 12, hydrochloride]
Would you mind ranking these molecules by ascending pKi? Record the ranking as a list of labels in the requested order. B, A, C

A: CCc1ccc(OCc2ccccc2C(=O)Nc2ccc3nc(CC)cc(N)c3c2)c(Cl)c1
B: Cc1cc(N)c2cc(NC(=O)c3ccccc3CCCCCOc3ccccc3)ccc2n1.Cl
C: Cc1cc(N)c2cc(NC(=O)c3ccccc3COc3ccc(Cl)c(C)c3)ccc2n1.Cl [Example 42, hydrochloride]
Thanks in advance: please rank these 3 entries by pKi, highest to lowest. Record the ranking as a list of labels in the requested order. A, C, B
(A: 6.35, C: 6.13, B: 5.86)
